target: T1, α-actinin 2 rod domain, spectrin repeats 1-4 (R1-R4) (human, UniProt P35609 274-746); experiment: SPR; Biacore 3000; ALP107-273 or peptide 3 immobilised by amine coupling on CM5; R1-R4 or R2-R3 as soluble analyte; 20 mM Tris pH 7.4, 150 mM NaCl, 0.005% P20; apparent Kd; settings: both partners purified
T1 construct: α-actinin 2, human, spectrin repeats 1-4, residues 274-746; also called α-actinin rod; α-actinin rod region; source: E. coli BL21(DE3), purified (Ni-NTA, TEV removal of the His-tag, ion exchange)
T1 sequence (P35609 274-746): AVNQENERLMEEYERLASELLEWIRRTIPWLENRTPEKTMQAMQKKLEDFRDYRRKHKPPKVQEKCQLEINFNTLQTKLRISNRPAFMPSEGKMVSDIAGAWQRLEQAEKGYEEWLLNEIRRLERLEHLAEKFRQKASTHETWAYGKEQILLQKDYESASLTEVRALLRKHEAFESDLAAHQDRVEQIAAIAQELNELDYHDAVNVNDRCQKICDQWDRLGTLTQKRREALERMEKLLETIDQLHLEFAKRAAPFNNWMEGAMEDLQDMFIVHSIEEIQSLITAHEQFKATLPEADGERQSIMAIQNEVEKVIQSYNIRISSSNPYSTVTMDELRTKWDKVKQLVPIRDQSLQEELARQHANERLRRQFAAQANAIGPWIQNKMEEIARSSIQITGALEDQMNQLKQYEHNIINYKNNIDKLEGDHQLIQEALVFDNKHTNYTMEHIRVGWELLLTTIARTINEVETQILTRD
ENDPOINT NAME: pKd
API: returns pKd as number; meaning -log10 of concentration in mol/L.

Let me know recorded pKd for PLEMELPGVKIVHAQFNTPMQL (source: synthetic peptide, bought: EZBiolab Inc) [ALP peptide 3 (residues 175-196)] , thanks. 5.52
